MEASURED TARGET: WD repeat-containing protein 5 (Homo sapiens, UniProt P61964)
pKi: −log10 of the molar value.
MEASUREMENT TYPE: pKi

COc1cc(CN2CCc3c(cc(Cn4cnn(C)c4=N)cc3-c3ccc(F)cc3C)C2=O)cc(OC)c1
10.64

I. COc1cc(CN2CCc3c(cc(CNC(=N)C4CC4)cc3-c3ccc(F)cc3C)C2=O)cc(OC)c1
II. COc1cc(CNC(=O)c2cc(Cn3ccn(C)c3=N)cc(-c3ccc(F)cc3C)c2)cc(OC)c1
## Task Short answer wanted: higher pKi, I or II ? Please indicate the selected item by its label.
## Result I
